System: Cavia porcellus
Assay: In vivo inhibition of leukotriene-induced bronchoconstriction in guinea pigs following 10 mg/kg i.v. administration.
Format: functional
Conditions: route intravenous
READOUT_LABEL: inhibition in vivo at 10 mg/kg
Please state the number and follow it with the unit.

CCCc1c(OCCCOCCCOc2c(C(C)=O)ccc(OCC(=O)O)c2CCC)ccc(C(C)=O)c1O : 91%
CCCc1c(OCCCOc2c(C(C)=O)ccc(OCCCCCC(=O)O)c2CCC)ccc(C(C)=O)c1O : 91%
CCCc1c(OCCOCCOc2c(C(C)=O)ccc(OCCCC(=O)O)c2CCC)ccc(C(C)=O)c1O : 91%

Field request: inhibition in vivo at 10 mg/kg | item: CCCc1c(OCCCCCOc2c(C(C)=O)ccc(OCCCC(=O)O)c2CCC)ccc(C(C)=O)c1O
92%

Field request: inhibition in vivo at 10 mg/kg | item: CCCc1c(OCCOCCOc2c(C(C)=O)ccc(OCCCCCC(=O)O)c2CCC)ccc(C(C)=O)c1O
91%

Field request: inhibition in vivo at 10 mg/kg | item: CCCc1c(OCCOCCOCCOCCOc2c(C(C)=O)ccc(OCC(=O)O)c2CCC)ccc(C(C)=O)c1O
90%

Field request: inhibition in vivo at 10 mg/kg | item: CCCc1c(OCCCOc2ccc3ccc(OCC(=O)O)cc3c2C(C)=O)ccc(C(C)=O)c1O
90%
